- assay_method_text: Cytotoxicity against human MT4 cells by MTT assay
- Assay type: cell-based
observed_property: CC50 (µM)
Report as a plain number; the unit µM is understood.

Incoming: For Cc1ccc(-c2c(C(OC(C)(C)C)C(=O)O)cnc3sc(C)cc23)cc1 (stereo unspecified) , what is its reported CC50?
Outgoing: 96

Incoming: For CCCC(C(=O)O)c1c(-c2ccccc2)c2cc(Cl)ccc2n(CCC)c1=O (stereo unspecified) , what is its reported CC50?
Outgoing: 64.4

Incoming: For CCCC(C(=O)O)c1cnc2sc(C)cc2c1-c1ccc(C)cc1 (stereo unspecified) , what is its reported CC50?
Outgoing: 72.2

Incoming: For C=CCC(C(=O)O)c1c(-c2ccccc2)c2cc(Cl)ccc2[nH]c1=O (stereo unspecified) , what is its reported CC50?
Outgoing: 67.3

Incoming: For CCCC(C(=O)O)c1c(C)nc2ccc(Cl)cc2c1-c1ccccc1 (stereo unspecified) , what is its reported CC50?
Outgoing: 67.3

----------
- Test system: Human immunodeficiency virus 1
- assay_method_text: Antiviral activity against HIV1 3B infected in human MT4 cells assessed as inhibition of viral replication by MTT assay
- Assay type: functional, organism-based
- experimental_parameters: Human immunodeficiency virus 1, 3B
pEC50: −log10 of the molar value.
Criterion: pEC50 meeting or surpassing 5. Met: true (1). Not met: false (0).

Incoming: Dear colleague, could you confirm whether CCCC(C(=O)O)c1c(C)nc2ccc(Cl)cc2c1-c1ccccc1 (stereo not given) has pEC50 at or above 5?
Outgoing: true (1)

Incoming: Dear colleague, could you confirm whether O=C(O)Cc1c(-c2ccccc2)c2cc(Cl)ccc2[nH]c1=O has pEC50 at or above 5?
Outgoing: false (0)

Incoming: Dear colleague, could you confirm whether CCCC(C(=O)O)c1cnc2sc(C)cc2c1-c1ccc(C)cc1 (stereo not given) has pEC50 at or above 5?
Outgoing: true (1)

----------
- assay_method_text: Selectivity index, ratio of CC50 for human MT4 cells to EC50 for HIV1 3B infected in human MT4 cells
- Assay type: toxicity, cell-based
- experimental_parameters: MT4 cells (uninfected for CC50; HIV-1 3B infected for EC50)
observed_property: selectivity ratio
Returns: the value as a bare number; no unit string appended.

Incoming: For C=CCC(C(=O)O)c1c(-c2ccccc2)c2cc(Cl)ccc2[nH]c1=O (stereo unspecified) , what is its reported selectivity ratio?
Outgoing: 6

Incoming: For CCCC(C(=O)O)c1c(-c2ccccc2)c2cc(Cl)ccc2n(CCC)c1=O (stereo unspecified) , what is its reported selectivity ratio?
Outgoing: 6

Incoming: For CCCC(C(=O)O)c1c(C)nc2ccc(Cl)cc2c1-c1ccccc1 (stereo unspecified) , what is its reported selectivity ratio?
Outgoing: 25

Incoming: For Cc1ccc(-c2c(C(OC(C)(C)C)C(=O)O)cnc3sc(C)cc23)cc1 (stereo unspecified) , what is its reported selectivity ratio?
Outgoing: 1390

Incoming: For CCCC(C(=O)O)c1cnc2sc(C)cc2c1-c1ccc(C)cc1 (stereo unspecified) , what is its reported selectivity ratio?
Outgoing: 95
